biological target: KRas G12D/Q61H double mutant (Homo sapiens (Human), UniProt P01116, G12D/Q61H); assay: Ras GTP binding domain inhibition assay (labeled GTP); conditions: 20 μM compound; read-out: % Inhibition at 20 μM KRas G12D Q61H
Sequence (P01116-2 other isoform, or with tags, fused parts or gaps G12D/Q61H): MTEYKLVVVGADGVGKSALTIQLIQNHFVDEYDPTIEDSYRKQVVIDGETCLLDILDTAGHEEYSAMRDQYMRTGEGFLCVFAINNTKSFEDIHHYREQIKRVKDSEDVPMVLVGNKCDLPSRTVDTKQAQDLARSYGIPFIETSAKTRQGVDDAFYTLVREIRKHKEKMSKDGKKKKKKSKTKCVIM
readoutType: inhibition at 20 µM

O=C1COc2cc(C(=O)Nc3nc(-c4ccccn4)cs3)ccc2N1 :: 25 to 50%
O=C(NCc1ccccn1)c1ccn(-c2cccc(Cl)c2)n1 :: 25 to 50%
COc1ccc(-c2nc(C(=O)NC(C)c3ccccn3)cs2)cc1 (centres unmarked) :: 25 to 50%
Cc1[nH]c(-c2ccccn2)nc(=O)c1C :: 25 to 50%
N#Cc1ccc(CCNC(=O)c2csc3nc(-c4ccccn4)nc(N4CCOCC4)c23)cc1 [drawing 2750] :: 1 to 25%
Nc1nc(-c2ccccn2)nc2scc(C(=O)O)c12 [drawing 2906] :: 25 to 50%
O=C(Nc1nc(-c2ccccn2)cs1)c1cccc(-n2cnnn2)c1 :: 25 to 50%
O=C(CCc1nn[nH]n1)Nc1nc(-c2ccccn2)nc2sccc12 [drawing 2890] :: 51 to 75%
O=C(Nc1nnc(-c2ccccn2)s1)c1nccc2ccccc12 :: 1 to 25%
CCCOc1ccc(C(F)(F)F)cc1NCc1ncc(C)o1 :: 25 to 50%
COc1ccccc1-c1csc2c(O)nc(-c3ccccn3)nc12 [drawing 2870] :: 25 to 50%

---

Below is a list of entries, each paired with its recorded inhibition at 20 µM value.
target: KRas G12D/Q61H double mutant (Homo sapiens (Human), UniProt P01116, G12D/Q61H); assay: Ras GTP binding domain inhibition assay (labeled GTP); settings: 20 μM compound; read-out: % Inhibition at 20 μM KRas G12D Q61H
readoutType: inhibition at 20 µM

COCCCCNC(=O)c1csc2nc(-c3ccccn3)nc(N3CCOCC3)c12 [drawing 2789] :: 1 to 25%
CCc1cc(NC(C)C(=O)N2CCOCC2)nc(-c2ccccn2)n1 (stereo not shown) :: 1 to 25%
Oc1nc(-c2ccccn2)nc2c(-c3ccccc3Cl)csc12 [drawing 2695] :: 51 to 75%
CCCCN(C(=O)c1nn(-c2ccccc2)nc1C)c1ccccc1 :: 25 to 50%
O=C(c1csc2c(O)nc(-c3ccccn3)nc12)N1CCOC(c2ccc(F)cc2)C1 (stereo not shown) [drawing 2743] :: 51 to 75%
Nc1nc(-c2ccccn2)nn1C(=O)CN1CCS(=O)(=O)CC1 :: 25 to 50%
O=C(c1ccc(-c2ccccc2Cl)o1)N(Cc1cccs1)C1CC1 :: 25 to 50%
CCc1ccc(OCC(=O)Nc2nnc(-c3ccccn3)[nH]2)cc1 :: 25 to 50%
Oc1nc(-c2ccccn2)nc2c(-c3cccc(C(F)(F)F)c3)csc12 [drawing 2873] :: 25 to 50%
COc1ccc(CN2CCN(C(=O)c3csc4c(O)nc(-c5ccccn5)nc34)CC2)cc1OC :: 25 to 50%

---

molecular target: KRas G12D/Q61H double mutant (Homo sapiens (Human), UniProt P01116, G12D/Q61H); assay: Ras GTP binding domain inhibition assay (labeled GTP); details: 20 μM compound; read-out: % Inhibition at 20 μM KRas G12D Q61H
readoutType: inhibition at 20 µM

COc1ccc(Br)cc1CN(C)C(C)c1nnc(-c2ccc(C)cc2)o1 (stereo not drawn) :: 25 to 50%
COc1cccc(C2CN(C(=O)c3csc4c(O)nc(-c5ccccn5)nc34)CCO2)c1 (stereo not drawn) [drawing 2729] :: 25 to 50%
Nc1nc(O)c2scc(C(=O)N3CCc4ccccc4CC3)c2n1 [drawing 2671] :: 1 to 25%
COCCN(CCOC)c1nc(-c2ccccn2)nc2scc(C(=O)NCCc3cnc(O)nc3)c12 [drawing 2812] :: 1 to 25%
CS(=O)(=O)CCCNC(=O)c1csc2nc(-c3ccccn3)nc(N3CCOCC3)c12 [drawing 2811] :: 1 to 25%
CC(C)CCC(=O)Nc1nnc(-c2ccccn2)[nH]1 :: 25 to 50%
O=C(c1csc2c(O)nc(-c3ccccn3)nc12)N1CCNC(Cc2ccccc2)C1 (stereo not drawn) [drawing 2778] :: 25 to 50%
O=C(c1csc2c(O)nc(-c3ccccn3)nc12)N1CCN(c2ccccc2Cl)CC1 [drawing 2718] :: 51 to 75%
O=C(c1csc2c(O)nc(-c3ccccn3)nc12)N1CCOC(c2ccccc2F)C1 (stereo not drawn) :: 25 to 50%
